Reported refractive index is given for each of the following compounds.
ASSAY: refractive index (Na D-line) (dimensionless)
MEASUREMENT PARAMETERS: 308.15 K; 101.33 kPa; Liquid; Standard Abbe refractometry
Numbers after ± are expanded uncertainties.

CCCCO = 1.39318 ± 0.00036
CCC(C)O (stereo not given) = 1.39064 ± 0.0004
CCC(C)=O = 1.37102 ± 0.00036
COC(=O)CCCCC(=O)OC [dimethyl 1,6-hexanedioate] = 1.42222 ± 0.0004

Dear colleague, please send me the reported refractive index for COC(=O)c1ccccc1C(=O)OC [dimethyl 1,2-benzenedicarboxylate] when you can.
1.50943 ± 0.0004
